# reported CC50; entries follow
System: Vero cells

Data request: Which CC50 reading was recorded for the molecule CN(C)C(=O)COC(=O)Cc1ccc(OC(=O)c2ccc(NC(=N)N)cc2)cc1.O=C(Nc1ccc([N+](=O)[O-])cc1Cl)c1cc(Cl)ccc1O [Example 1] ?
Data returned: > 50 µM

Data request: Quick check: CC50 of CN(C)C(=O)COC(=O)Cc1ccc(OC(=O)c2ccc(NC(=N)N)cc2)cc1.O=C(Nc1ccc([N+](=O)[O-])cc1Cl)c1cc(Cl)ccc1O [Example 17] ?
Data returned: > 50 µM

* * *

Tested on: MCF7/PR Paclitaxel resistant MCF7 cell line
assay_procedure: Luminescent cell viability assay (CellTiter glo), subtype-specific breast cancer cell lines
Format: cell-based
Reported IC50 is given for each of the following molecules.
Response body: numeric value in µM, unit text excluded.

- molecule: "CN(C)C(=O)COC(=O)Cc1ccc(OC(=O)c2ccc(NC(=N)N)cc2)cc1.O=C(Nc1ccc([N+](=O)[O-])cc1Cl)c1cc(Cl)ccc1O [Example 17]"
  reported_value: 5.82

Data request: Item CN(C)C(=O)COC(=O)Cc1ccc(OC(=O)c2ccc(NC(=N)N)cc2)cc1.O=C(Nc1ccc([N+](=O)[O-])cc1Cl)c1cc(Cl)ccc1O [Example 1] with MCF7/PR Paclitaxel resistant MCF7 cell line - IC50?
Data returned: 5.69

* * *

Tested on: PANC-1 pancreatic cancer cell line
assay_procedure: Inhibition of cancer cell proliferation, CCK-8 assay
Assay type: cell-based
condition_info: PANC-1, 48 hours drug treatment
measurement_kind: IC50 (µM)
# value in µM; strip the unit string

Data request: Endpoint output: IC50 of CN(C)C(=O)COC(=O)Cc1ccc(OC(=O)c2ccc(NC(=N)N)cc2)cc1.O=C(Nc1ccc([N+](=O)[O-])cc1Cl)c1cc(Cl)ccc1O [Example 1] . Value?
Data returned: 0.0993

* * *

System: MIAPACA-2 pancreatic cancer cell line
assay_procedure: Inhibition of cancer cell proliferation, CCK-8 assay
Assay type: cell-based
condition_info: MiaPaCa-2, 48 hours drug treatment
measurement_kind: pIC50
Scale: pIC50 equals -log10([C]), with [C] in mol/L.

Data request: Hello, I am looking for reported pIC50 with MIAPACA-2 pancreatic cancer cell line for CN(C)C(=O)COC(=O)Cc1ccc(OC(=O)c2ccc(NC(=N)N)cc2)cc1.O=C(Nc1ccc([N+](=O)[O-])cc1Cl)c1cc(Cl)ccc1O [Example 1] . Could you help?
Data returned: 6.14

* * *

System: A-549 non-small cell lung cancer cell line
assay_procedure: Inhibition of cancer cell proliferation, CCK-8 assay
Format: cell-based
condition_info: A-549, 48 hours drug treatment
measurement_kind: pIC50
Remember the convention: pIC50 equals -log10 of concentration in molar.

Data request: Provide value of pIC50 for this record tested with A-549 non-small cell lung cancer cell line: CN(C)C(=O)COC(=O)Cc1ccc(OC(=O)c2ccc(NC(=N)N)cc2)cc1.O=C(Nc1ccc([N+](=O)[O-])cc1Cl)c1cc(Cl)ccc1O
Data returned: 6.01

* * *

Reported CC50 values are given for each entry in this list.
assay_procedure: in vitro
condition_info: African green monkey

Data request: # input compound: CCC(CC)COC(=O)[C@H](C)N[P@](=O)(OC[C@H]1O[C@@](C#N)(c2ccc3c(N)ncnn23)[C@H](O)[C@@H]1O)Oc1ccccc1 ; wanted: its CC50
Data returned: > 50 µM

Data request: Query: CC50; subject: CCN(CC)CCCC(C)Nc1ccnc2cc(Cl)ccc12 (stereo not drawn)
Data returned: > 150 µM

Data request: For Cc1cccc(C)c1OCC(=O)N[C@@H](Cc1ccccc1)[C@@H](O)C[C@H](Cc1ccccc1)NC(=O)[C@H](C(C)C)N1CCCNC1=O , what is its reported CC50?
Data returned: > 50 µM
